Can you tell me concentration at 0.5 h for the items I'm about to list?
Test: Pharmacokinetics of intraperitoneal or intravenous injection in CD1 mice
Type: in vivo
Conditions: male, CD1, mouse, plasma, ip, 10 mg/kg, IP 10 mg/kg, CD1 mice plasma, 0.5 h; read-out: Conc. (ng/mL) Mouse 3
Your answer is read as ng/mL, so omit the unit and give the number.

Item Cc1ncsc1-c1ccc(CNC(=O)[C@@H]2C[C@@H](O)CN2C(=O)[C@@H](NC(=O)COCCCOc2ccc(Nc3ncc(C(F)(F)F)c(NCc4cccc(N(C)S(C)(=O)=O)c4)n3)cc2)C(C)(C)C)cc1 has what recorded concentration at 0.5 h?
335

# concentration at 0.5 h lookup, item Cc1ncsc1-c1ccc(CNC(=O)[C@@H]2C[C@@H](O)CN2C(=O)[C@@H](NC(=O)COCCOc2ccc(Nc3ncc(C(F)(F)F)c(NCc4cccc(N(C)S(C)(=O)=O)c4)n3)cc2)C(C)(C)C)cc1
373

Query: concentration at 0.5 h; subject: CN(c1cccc(CNc2nc(Nc3ccc(OCCCOCCC(=O)NCCOc4cccc5c4C(=O)N(C4CCC(=O)NC4=O)C5=O)cc3)ncc2C(F)(F)F)c1)S(C)(=O)=O (centres unmarked)
69.3

Endpoint output: concentration at 0.5 h of Cc1ncsc1-c1ccc(CNC(=O)[C@@H]2C[C@@H](O)CN2C(=O)[C@@H](NC(=O)CCOCCCOc2ccc(Nc3ncc(C(F)(F)F)c(NCc4cccc(N(C)S(C)(=O)=O)c4)n3)cc2)C(C)(C)C)cc1 . Value?
608

Reported concentration at 0.5 h for Cc1ncsc1-c1ccc(CNC(=O)[C@@H]2C[C@@H](O)CN2C(=O)[C@@H](NC(=O)CCOCCOc2ccc(Nc3ncc(C(F)(F)F)c(NCc4cccc(N(C)S(C)(=O)=O)c4)n3)cc2)C(C)(C)C)cc1 : what is it?
551

* * *

Would you mind telling me the reported concentration at 1 h of each entry?
Assay: Pharmacokinetics of intraperitoneal or intravenous injection in CD1 mice
Assay type: in vivo
Conditions: male, CD1, mouse, plasma, ip, 10 mg/kg, IP 10 mg/kg, CD1 mice plasma, 1 h; read-out: Conc. (ng/mL) Mouse 2

Query: concentration at 1 h; subject: Cc1ncsc1-c1ccc(CNC(=O)[C@@H]2C[C@@H](O)CN2C(=O)[C@@H](NC(=O)COCCCOc2ccc(Nc3ncc(C(F)(F)F)c(NCc4cccc(N(C)S(C)(=O)=O)c4)n3)cc2)C(C)(C)C)cc1
1520 ng/mL

Recorded concentration at 1 h of Cc1ncsc1-c1ccc(CNC(=O)[C@@H]2C[C@@H](O)CN2C(=O)[C@@H](NC(=O)CCOCCCOc2ccc(Nc3ncc(C(F)(F)F)c(NCc4cccc(N(C)S(C)(=O)=O)c4)n3)cc2)C(C)(C)C)cc1 , please.
2460 ng/mL

Give its concentration at 1 h value. Item: Cc1ncsc1-c1ccc(CNC(=O)[C@@H]2C[C@@H](O)CN2C(=O)[C@@H](NC(=O)CCOCCOc2ccc(Nc3ncc(C(F)(F)F)c(NCc4cccc(N(C)S(C)(=O)=O)c4)n3)cc2)C(C)(C)C)cc1
2130 ng/mL

Which concentration at 1 h value belongs to CN(c1cccc(CNc2nc(Nc3ccc(OCCCOCCC(=O)NCCOc4cccc5c4C(=O)N(C4CCC(=O)NC4=O)C5=O)cc3)ncc2C(F)(F)F)c1)S(C)(=O)=O (centres unmarked) ?
54.2 ng/mL

Recorded concentration at 1 h of Cc1ncsc1-c1ccc(CNC(=O)[C@@H]2C[C@@H](O)CN2C(=O)[C@@H](NC(=O)COCCOc2ccc(Nc3ncc(C(F)(F)F)c(NCc4cccc(N(C)S(C)(=O)=O)c4)n3)cc2)C(C)(C)C)cc1 , please.
1550 ng/mL
